- System: HS 578T breast
- EXPERIMENT_NOTES: NCI tumour cell line growth inhibition, 48 h; in the data active = GI50 below about 0.43 µM; inactive = the rest
Classes used: active, inactive

{"columns": ["MOLECULAR_STRING", "CAT"],
 "data": [
  ["O=Cc1ccc(O)c2ncccc12", "inactive"],
  ["C=CC(=O)Nc1cccc(C)c1Nc1ncc2cc(-c3c(Cl)c(OC)cc(OC)c3Cl)ccc2n1", "inactive"],
  ["COc1cccc2c(=O)c3c(sc12)c(NCCN(C)C)nc1ccccc13", "inactive"],
  ["O=C(/C=C/c1ccc(C(F)(F)F)cc1)c1ccc(Nc2nc(NCCO)nc(N3CCOCC3)n2)cc1", "inactive"],
  ["COc1ccc(/C=C/C(=O)c2cc3c(N)c(C(=O)Nc4ccccc4)sc3nc2C)cc1", "active"]
]}

* * *

- Tested on: HL-60(TB) leukemia
- EXPERIMENT_NOTES: NCI tumour cell line growth inhibition, 48 h
Documented TGI across a set of compounds

{"columns": ["COMPOUND", "UNIT_TAG", "RELATION_QUALIFIER", "TGI"],
 "data": [
  ["CC(C)CCc1c(Cl)nc(Cl)nc1Cl", "µM", ">", 100],
  ["CC1=Nn2c(nnc2-c2ccc(N)cc2)NC(C)(C)C1", "µM", ">", 100],
  ["CN(C)/C=C/c1nnnn1-c1ccc(I)cc1", "µM", "=", 25.7],
  ["c1ccc(SC(CCCCOC2CCCCO2)Sc2ccccc2)cc1 (centres undefined)", "µM", "=", 47.5],
  ["COc1ccc2c(c1)N=C1CSC(c3c(Cl)cccc3[N+](=O)[O-])N1C2 (centres undefined)", "µM", "=", 79.3],
  ["CC(=O)OC[C@@H](OC(C)=O)[C@@H](OC(C)=O)[C@H]1OC[C@@H]2C[C@H]([C@H]1OC(C)=O)N(Cc1ccccc1)O2", "µM", ">", 100],
  ["O/N=C1\\CCc2cc3c(cc21)CCC3", "µM", ">", 100],
  ["CCOC1C=CCCO1 (centres undefined)", "µM", ">", 100],
  ["O=C1/C(=C/c2ccc(Cl)cc2)COc2ccc(O)c(O)c21", "µM", "=", 0.827]
]}

* * *

The following compounds are shown together with reported TGI values.
- System: HCT-116 colon
- EXPERIMENT_NOTES: NCI tumour cell line growth inhibition, 48 h
TEST_READOUT: TGI (µM)

{"columns": ["COMPOUND", "RELATION_QUALIFIER", "VALUE_REPORTED"],
 "data": [
  ["COc1cc(/C=C2/C(=O)NC(Cc3cc(OC)c(OC)c(C)c3OC)C(=O)N2Cc2ccccc2)c(OC)c(C)c1OC (centres undefined)", ">", 100],
  ["CC1=NN(C(=O)c2ccc(Cl)cc2)C(=O)/C1=C/c1ccc(O)cc1", ">", 100],
  ["O=C1c2ccccc2-c2c1c(-c1ccccc1)c1n2C2(C(=O)c3ccccc3C2=O)C2C(=O)N(c3ccccc3)C(=O)C12 (centres undefined)", "=", 37.8],
  ["COc1cccc2c(=O)c3c(sc12)c(NCCN(C)C)nc1ccccc13", "=", 1.85],
  ["O=C(OC(/C=C/c1ccccc1)P1(=O)N(Cc2ccccc2)[C@@H]2CCCC[C@H]2N1Cc1ccccc1)c1ccccc1 (some centres undefined)", ">", 100],
  ["CC(C)c1nc2c(Cl)c3ncccc3cc2[nH]c1=O", ">", 100],
  ["Oc1ccc(N=Nc2ccc(N=Nc3ccccc3)cc2)cc1", "=", 10.1],
  ["NS(=O)(=O)c1nnc(/N=C(/CCC(=O)O)C(=O)O)s1", ">", 100],
  ["CC(=O)c1cccc(NC(=O)C(=O)C(C(=O)c2ccccc2F)C2OC(=O)c3ccccc32)c1 (centres undefined)", "=", 88.6]
]}
